# Tested system: T1, full-length IGSF8 (recombinant antigen of the SPR screen; IGSF8 target antigen of the phage panning) (human, UniProt Q969P0 28-579, limits assumed)
# T1 sequence (looked up): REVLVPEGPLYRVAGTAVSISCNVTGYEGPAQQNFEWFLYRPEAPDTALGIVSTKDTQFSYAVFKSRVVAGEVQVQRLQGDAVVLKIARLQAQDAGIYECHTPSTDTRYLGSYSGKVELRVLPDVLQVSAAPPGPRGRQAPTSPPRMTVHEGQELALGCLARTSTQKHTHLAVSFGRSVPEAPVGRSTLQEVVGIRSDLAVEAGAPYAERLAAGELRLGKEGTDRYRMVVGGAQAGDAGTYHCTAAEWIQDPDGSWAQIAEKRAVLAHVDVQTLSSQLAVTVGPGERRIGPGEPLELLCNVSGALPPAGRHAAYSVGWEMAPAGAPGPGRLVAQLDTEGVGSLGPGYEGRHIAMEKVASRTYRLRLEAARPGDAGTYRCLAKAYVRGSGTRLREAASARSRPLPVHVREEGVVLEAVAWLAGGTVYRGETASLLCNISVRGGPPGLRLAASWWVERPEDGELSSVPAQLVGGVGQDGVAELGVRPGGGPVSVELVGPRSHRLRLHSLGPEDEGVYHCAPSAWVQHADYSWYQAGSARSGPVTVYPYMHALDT
# Experimental details: SPR, Biacore T100
pKd: −log10 of the molar value.
Property measured: pKd

• Antibody C34 (1D7) (antibody, V domains shown, also called mAb-1D7 (C34)) VH: EVQLLESGGGLVQPGGSLRLSCAVSGFTFNSFAMSWVRQAPGKGLEWVSAISGSGGGTYYADSVKGRFTISRDNSKNTLYLQMNSLRAEDTAIYYCAREVDGYGAFDIWGQGTMVTVSS VL: DIQMTQSPSSLSASVGNRVTITCRASQTIRNYLNWYQQKPGEAPKVLIYGASTLQSGVPSRFSASGSGTDFTLTISSLQPDDFATYHCQQTFSDPYTFGQGTKVEIK = 8.67
• Antibody C30 (B34) (antibody, V domains shown, Expressed in CHO cells; also called mAb-B34 (C30)) VH: EVQLLESGGGLVQPGGSLRLSCAASGFTFSSYAMSWVRQAPGKGLEWVSGITGSGGSTYYADSVKGRFTISRDNSKNTLYLQMNSLRAEDTAVYYCARGRQVDKWGQGTLVTVSS VL: DIMLTQSPSSLSASVGDRVTITCRASQSIHNYLNWIQQTPGKAPKLLVFAASTLQRGVPPRYSGRGSGTEFTLTISSLQPEDFATYYCQQSYTTPLTFGGGTKVEIRR = 7.86
• Antibody C35 (1B1) (antibody, V domains shown, also called mAb-1B1 (C35)) VH: EVQLLESGGGLVQPGGSLRLSCAVSGFTFNSFAMSWVRQAPGKGLEWVSAISGSGGGTYYADSVKGRFTISRDNSKNTLYLQMNSLRAEDTAVYYCAREGWEVRTPGYFDYWGQGTLVTVSS VL: DVVMTQSPSSLSASVGDRVTITCRASHRIFSYLTWYHQKPGKAPNLLISGASSLGAGVPSRFSGSGSGTDFTLTISSLQPEDFGTYYCQQSFSDPYTFGQGTKLEIKR = 8.69
• Antibody C31 (B46) (antibody, V domains shown, also called mAb-B46 (C31)) VH: QVQLVESGGGVVQPGRSLRLSCAASGFTFSTYGMHWVRQAPGKGLEWVAVIWDDGSYKYYGDSVKGRFTISRDNSKNTLYLQMNSLRAEDTAVYYCAGGYSYSYMAIWGKGTTVTVSS VL: DIVLTQSPSSLSASVGDRVTITCRASQGISTFLNWYQQKPGKAPKLLIYAASSLQSGVPSRFSGSGSGTDFTLTIGSLQPEDFASYFCQQTYSTQWTFGQGTKVEIK = 8.14
• Antibody C32 (B104) (antibody, IgG1, V domains shown, also called mAb-B104 (C32)) VH: QVQLVQSGAEVKRPGASVKVSCKASGYTFTNDIIHWVRQAPGQRLEWMGWINAGYGNTQYSQNFQDRVSITRDTSASTAYMELISLRSEDTAVYYCARGYYRSPTWFDWWGQGTLVTVSS VL: ETTLTQSPSSLSASVGDRVTITCRASQSISSWLAWYQQKPGKAPKLLIYKASSLESGVPSRFSGSGSGTEFTLTISSLQPDDFATYYCQQYGDYPYTFGQGTKLEIKR = 7.59

Entry source: patent US20230303695A1
